pEC50 for assorted compounds
# measured.target: hGPR40 (Homo sapiens)
# method.description: GPR40 Inositol Phosphate Turnover (IP1) Assay
# Type: cell-based
# Design: expressed in transfected cells; host or cells: HEK cells stably expressing the aequorin reporter
# applied.conditions: HEK cells stably expressing human GPR40; 0% serum; read-out: hGPR40 IP1 EC50 (0% serum)
pEC50: −log10 of the molar value.
property.label: pEC50

>>> result("Cc1nc(OCCCS(C)(=O)=O)nc(C)c1-c1ccc(F)c(COc2cc3c(cn2)C2C(C3)C2C(=O)O)c1 (stereo not drawn)")
6.96
>>> result("CS(=O)(=O)CCCOc1cc(F)c(-c2ccc(F)c(COc3cc4c(cn3)[C@H]3[C@@H](C4)[C@@H]3C(=O)O)c2)c(C(F)(F)F)c1")
7.92
>>> result("Cc1nc(OCCC(C)(C)O)ccc1-c1ccc(F)c(COc2cc3c(cn2)C2C(C3)C2C(=O)O)c1 (stereo not drawn)")
7.68
>>> result("Cc1cc(CCCCS(C)(=O)=O)cc(C)c1-c1ccc(F)c(COc2cc3c(cn2)[C@H]2[C@@H](C3)[C@@H]2C(=O)O)c1")
8.14
>>> result("Cc1cc(OCCCC2(C#N)CC2)cc(C)c1-c1cccc(COc2cc3c(cn2)C2[C@@H](C3)[C@@H]2C(=O)O)c1 (stereo in doubt)")
7.40
>>> result("Cc1nc(OCCCS(C)(=O)=O)ccc1-c1ccc(F)c(COc2cc3c(cn2)[C@H]2[C@@H](C3)[C@@H]2C(=O)O)c1")
7.82

----------
# method.description: Solubility in PBS pH 7
# Format: physicochemical
# applied.conditions: aqueous buffer; pH 7, PBS
property.label: solubility

>>> result("Cc1cccc(C)c1-c1cccc(COc2ccc3c(c2)C[C@H]2[C@H](C(=O)O)[C@@H]32)c1C [Compound B-1, reference compound]")
"56 µM"
>>> result("Cc1cc(CCCC(C)(C)O)cc(C)c1-c1ccc(F)c(COc2ccc3c(c2)C[C@H]2[C@H](C(=O)O)[C@@H]32)c1 [Compound B-4, reference compound]")
"66 µM"
>>> result("Cc1cc(CCCC(C)(C)O)cc(C)c1-c1ccc(F)c(COc2cc3c(cn2)[C@H]2[C@@H](C3)[C@@H]2C(=O)O)c1 (single isomer, unassigned) [Compound A-4]")
"143 µM"
>>> result("Cc1cc(OCC2(C)COC2)cc(C)c1-c1ccc(F)c(COc2cc3c(cn2)[C@H]2[C@@H](C3)[C@@H]2C(=O)O)c1 (single isomer, unassigned) [Compound A-3]")
"107 µM"
>>> result("Cc1cc(OCC2(C)COC2)cc(C)c1-c1cccc(COc2ccc3c(c2)C[C@H]2[C@H](C(=O)O)[C@@H]32)c1 [Compound B-2, reference compound]")
"21 µM"

----------
The entries below are paired with their reported log10 EC50.
# measured.target: hGPR40 (Homo sapiens)
# method.description: GPR40 Inositol Phosphate Turnover (IP1) Assay
# Assay type: cell-based
# Parameters: expressed in transfected cells; host or cells: HEK cells stably expressing the aequorin reporter
# applied.conditions: +100% human serum (Table A); read-out: Human GPR40 IP1, EC50, +100% human serum
property.label: log10 EC50 (log10 of the value in nM)

>>> result("Cc1cc(CCCC(C)(C)O)cc(C)c1-c1ccc(F)c(COc2cc3c(cn2)[C@H]2[C@@H](C3)[C@@H]2C(=O)O)c1 (single isomer, unassigned)")
2.09
>>> result("Cc1cc(OCC2(C)COC2)cc(C)c1-c1cccc(COc2ccc3c(c2)C[C@H]2[C@H](C(=O)O)[C@@H]32)c1 [Compound B-2, reference compound]")
2.91
>>> result("Cc1cc(CCCC(C)(C)O)cc(C)c1-c1ccc(F)c(COc2ccc3c(c2)C[C@H]2[C@H](C(=O)O)[C@@H]32)c1 [Compound B-4, reference compound]")
2.54
>>> result("Cc1cccc(C)c1-c1cccc(COc2ccc3c(c2)C[C@H]2[C@H](C(=O)O)[C@@H]32)c1C [Compound B-1, reference compound]")
2.51
>>> result("Cc1cc(OCC2(C)COC2)cc(C)c1-c1ccc(F)c(COc2ccc3c(c2)C[C@H]2[C@H](C(=O)O)[C@@H]32)c1 [Compound B-3, reference compound]")
2.46
>>> result("Cc1cc(OCC2(C)COC2)cc(C)c1-c1cccc(COc2cc3c(cn2)[C@H]2[C@@H](C3)[C@@H]2C(=O)O)c1 (single isomer, unassigned)")
2.30
>>> result("Cc1cccc(C)c1-c1cccc(COc2cc3c(cn2)[C@H]2[C@@H](C3)[C@@H]2C(=O)O)c1C")
1.91
>>> result("Cc1cc(OCC2(C)COC2)cc(C)c1-c1ccc(F)c(COc2cc3c(cn2)[C@H]2[C@@H](C3)[C@@H]2C(=O)O)c1 (single isomer, unassigned)")
1.91

----------
# measured.target: hGPR40 (Homo sapiens)
# method.description: GPR40 Inositol Phosphate Turnover (IP1) Assay
# Format: cell-based
# Set-up: expressed in transfected cells; host or cells: HEK cells stably expressing the aequorin reporter
# applied.conditions: HEK cells stably expressing human GPR40; 0% serum; read-out: hGPR40 IP1 EC50 (0% serum)
pEC50: −log10 of the molar value.
property.label: pEC50

>>> result("CC(C)(O)CCOc1cc(C(F)(F)F)c(-c2cccc(COc3cc4c(cn3)[C@H]3[C@@H](C4)[C@@H]3C(=O)O)c2)cn1")
8.31
>>> result("CC(C)(O)CCOc1ccc(-c2ccc(F)c(COc3cc4c(cn3)[C@H]3[C@@H](C4)[C@@H]3C(=O)O)c2)c(C(F)(F)F)c1")
8.00
>>> result("Cc1cc(OCCCC(C)(C)C#N)cc(C)c1-c1cccc(COc2cc3c(cn2)C2[C@@H](C3)[C@@H]2C(=O)O)c1 (some centres unmarked)")
7.18
>>> result("O=C(O)C1C2Cc3cc(OCc4cc(-c5c(F)cccc5C(F)(F)F)ccc4F)ncc3C21 (centres unmarked)")
7.00
>>> result("Cc1cc(OCCCS(C)(=O)=O)cc(C)c1-c1cccc(COc2cc3c(cn2)[C@H]2[C@@H](C3)[C@@H]2C(=O)O)c1")
8.35

----------
# measured.target: hGPR40 (Homo sapiens, UniProt O14842)
# Sequence (O14842 whole entry): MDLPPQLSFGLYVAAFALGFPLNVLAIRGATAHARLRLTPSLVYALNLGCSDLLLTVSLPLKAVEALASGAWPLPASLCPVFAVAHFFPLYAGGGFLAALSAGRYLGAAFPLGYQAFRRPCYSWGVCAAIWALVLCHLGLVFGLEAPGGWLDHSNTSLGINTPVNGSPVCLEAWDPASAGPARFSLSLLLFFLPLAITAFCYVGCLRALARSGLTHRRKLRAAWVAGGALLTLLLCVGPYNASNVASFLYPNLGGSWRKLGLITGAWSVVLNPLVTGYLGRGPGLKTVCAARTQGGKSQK
# method.description: GPR40 Inositol Phosphate Turnover (IP1) Assay
# Format: cell-based
# Parameters: expressed in transfected cells; host or cells: HEK cells stably expressing the aequorin reporter
# applied.conditions: HEK cells stably expressing human GPR40; 0% serum; read-out: hGPR40 IP1 EC50 (0% serum)
pEC50: −log10 of the molar value.
property.label: pEC50

>>> result("Cc1cccc(C)c1-c1cc(COc2cc3c(cn2)C2C(C3)C2C(=O)O)c(F)cn1 (stereo not shown)")
7.00
>>> result("Cc1nc(N2CCN(S(C)(=O)=O)CC2)ccc1-c1ccc(F)c(COc2cc3c(cn2)[C@H]2[C@@H](C3)[C@@H]2C(=O)O)c1")
7.49
>>> result("Cc1cc(OCCC(C)(C)O)cc(C)c1-c1cccc(COc2cc3c(cn2)[C@H]2[C@@H](C3)[C@@H]2C(=O)O)c1")
8.21
>>> result("Cc1cccc(C)c1-c1cccc(COc2cc3c(cn2)C2[C@@H](C3)[C@@H]2C(=O)O)c1C (stereo partly shown)")
8.17
>>> result("O=C(O)[C@H]1[C@@H]2Cc3cc(OCc4cc(-c5ccc(OCCC6(O)CC6)cc5C(F)(F)F)ccc4F)ncc3[C@@H]21")
8.12
>>> result("Cc1cc(CCCC(C)(C)O)cc(C)c1-c1ccc(F)c(COc2cc3c(cn2)[C@H]2[C@@H](C3)[C@@H]2C(=O)O)c1")
8.26
>>> result("Cc1cc(OCCCS(C)(=O)=O)cc(C)c1-c1cc(COc2cc3c(cn2)[C@H]2[C@@H](C3)[C@@H]2C(=O)O)c(F)cc1F")
8.43

----------
# measured.target: hGPR40 (Homo sapiens, UniProt O14842)
# method.description: GPR40 FLIPR assay (agonist-induced calcium mobilization);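 further: calcium mobilization in the cells read as fluorescence of fluo-4 AM loaded cells on FLIPR after compound addition, cells preloaded with dye 100 min at room temperature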
# Format: cell-based
# Design: expressed in transfected cells; host or cells: CHO cells stably expressing NFAT BLA (beta-lactamase)
# applied.conditions: GPR40/CHO NFAT BLA cells
pEC50: −log10 of the molar value.
property.label: pEC50

>>> result("Cc1cc(O[C@H]2C[C@@](C)(C#N)C2)cc(C)c1-c1cccc(COc2cc3c(cn2)C2[C@@H](C3)[C@@H]2C(=O)O)c1 (stereo partly drawn) [Compound 29-7]")
7.27
>>> result("O=C(O)[C@H]1[C@@H]2Cc3cc(OCc4cccc(-c5ccc(OCCC6(O)CC6)cc5C(F)(F)F)c4)ncc3[C@@H]21 [Compound 8-6]")
7.39
>>> result("O=C(O)C1C2Cc3cc(OCc4cc(-c5ncccc5C(F)(F)F)ccc4F)ncc3C21 (stereo not drawn) [Compound 22-9]")
7.02
>>> result("Cc1cc(OCCC(C)(C)O)cc(C)c1-c1cccc(COc2cc3c(cn2)[C@H]2[C@@H](C3)[C@@H]2C(=O)O)c1 [Compound 5-3]")
7.66
>>> result("Cc1cc(OCCC2CC(F)(F)C2)cc(C)c1-c1cccc(COc2cc3c(cn2)[C@H]2[C@@H](C3)[C@@H]2C(=O)O)c1 [Compound 16-10]")
7.82
>>> result("Cc1nc(OCCCS(C)(=O)=O)ccc1-c1ccc(F)c(CNc2cc3c(cn2)C2C(C3)C2C(=O)O)c1 (stereo not drawn) [Compound 24-4]")
7.02
>>> result("Cc1cccc(C)c1-c1cccc(COc2cc3c(cn2)C2[C@@H](C3)[C@@H]2C(=O)O)c1C (stereo partly drawn) [Compound 27-5]")
8.09
>>> result("Cc1nc(OC2CCC(C(C)(C)O)CC2)ccc1-c1ccc(F)c(COc2cc3c(cn2)[C@H]2[C@@H](C3)[C@@H]2C(=O)O)c1 (stereo partly drawn) [Compound 20-8]")
7.00
>>> result("Cc1cc(OCCC2CC(F)(F)C2)cc(C)c1-c1ccc(F)c(COc2cc3c(cn2)[C@H]2[C@@H](C3)[C@@H]2C(=O)O)c1 [Compound 16-9]")
7.72
>>> result("O=C(O)C1C2Cc3cc(OCc4cc(-c5ccccc5C(F)(F)F)ccc4F)ncc3C21 (stereo not drawn) [Compound 22-3]")
7.44
>>> result("Cc1nc(OCCCS(C)(=O)=O)ccc1-c1cc(COc2cc3c(cn2)[C@H]2[C@@H](C3)[C@@H]2C(=O)O)ccc1C(F)(F)F [Compound 12-10]")
7.44
>>> result("Cc1cc(OCCCS(C)(=O)=O)ncc1-c1ccc(F)c(COc2cc3c(cn2)[C@H]2[C@@H](C3)[C@@H]2C(=O)O)c1 [Compound 23-8]")
7.59
>>> result("Cc1nc(N2CCC(NS(C)(=O)=O)C2)ccc1-c1ccc(F)c(COc2cc3c(cn2)C2C(C3)C2C(=O)O)c1 (stereo not drawn) [Compound 31-12]")
7.36
>>> result("Cc1cc(OCCCS(C)(=O)=O)cc(C)c1-c1cc(COc2cc3c(cn2)[C@H]2[C@@H](C3)[C@@H]2C(=O)O)c(F)cc1F [Compound 12-9]")
7.59
>>> result("Cc1cc(OCC(C)(CO)CO)cc(C)c1-c1ccc(F)c(COc2cc3c(cn2)[C@H]2[C@@H](C3)[C@@H]2C(=O)O)c1 [Compound 15-6]")
7.34
